Target: T1, human Claudin-1 (human, UniProt O95832 1-211)
T1 construct: whole, on cells; also called CLDN1; human CLDN1
T1 sequence (looked up): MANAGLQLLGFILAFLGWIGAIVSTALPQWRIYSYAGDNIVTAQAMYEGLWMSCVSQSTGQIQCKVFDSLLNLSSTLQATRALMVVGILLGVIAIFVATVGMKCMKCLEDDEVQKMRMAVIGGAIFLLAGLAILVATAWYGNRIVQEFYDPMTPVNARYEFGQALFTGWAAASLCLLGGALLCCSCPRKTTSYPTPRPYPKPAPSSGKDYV
Assay: flow cytometry on Huh7.5.1 and HepG2 cells with surface CLDN1 (FIG. 2A)

{"columns": ["binder", "binding result"],
 "data": [
  ["humanized anti-CLDN1 mAb H2L1 (antibody, V domains shown, Full-length antibody made in CHO cells; variable domains fused to the constant domains of human IgG4 heavy and human kappa light chains) VH: QVQLVESGGGVVQPGRSLRLSCAASGFSFSSYGMNWVRQAPGKGLEWVTSISPSGSYFYYADSVKGRFTISRDNSKNTLYLQMNSLRAEDTAIYYCARLPGFNPPFDHWGQGTLVTVSS VL: DIQMTQSPATLSVSPGERATLSCKASQNVGGNVDWYQWKPGQAPRLLIYGASNRYTGIPARFRGSGSGTEFTLTISSLQSEDFAVYYCLQYKNNPWTFGQGTKVEIK", "binds"],
  ["humanized anti-CLDN1 mAb H2L2 (antibody, V domains shown, Full-length antibody made in CHO cells; variable domains fused to the constant domains of human IgG4 heavy and human kappa light chains) VH: QVQLVESGGGVVQPGRSLRLSCAASGFSFSSYGMNWVRQAPGKGLEWVTSISPSGSYFYYADSVKGRFTISRDNSKNTLYLQMNSLRAEDTAIYYCARLPGFNPPFDHWGQGTLVTVSS VL: DIQMTQSPSSLSASVGDRVTITCKASQNVGGNVDWYQWKPGKAPKLLIYGASNRYTGVPSRFRGSGSGTDFTLTISSLQPEDVATYYCLQYKNNPWTFGQGTKVEIK", "binds"]
]}
